Data provenance is PubChem BioAssay (NCI).

- Test system: OVCAR-5 ovarian
- Assay: NCI tumour cell line growth inhibition, 48 h
Parameter measured: TGI

1. O=CC1CCCc2ccccc21 (stereo not given); > 100 µM
2. O=C(NN1C(=O)CSC12CCCC2)c1[nH]c2ccc(Br)cc2c1-c1ccccc1; > 100 µM
3. CN1c2ccccc2N(C)C23N(C)c4ccccc4N(C)C12N(C)c1ccccc1N3C (stereo not given); > 100 µM
4. Nc1ccccc1CC(O)C(=O)O (stereo not given); > 100 µM
5. CC1(C)CC(=O)c2c(nc3ccc4ccccc4c3c2-c2ccc(NC(=O)CCCCCCCCC(=O)Nc3ccc(-c4c5c(nc6ccc7ccccc7c46)CC(C)(C)CC5=O)cc3)cc2)C1; > 100 µM
6. CC1(C)C2C=CC1(C)C1(CC2)OCCO1 (stereo not given); > 100 µM
7. C/C=C(\C)C(=O)O[C@H]1C=CC(=O)O[C@@H]1CC[C@H](O)[C@H](C)O; > 100 µM
8. CCOC(=O)NC(=O)c1cn(CCN2CCN(c3ncnc4nc[nH]c34)CC2)c(=O)[nH]c1=O; > 100 µM
9. CCOP(=O)(OCC)C1CC(n2cc(C)c(=O)[nH]c2=O)OC1CO (stereo not given); > 100 µM
10. O=C(Nc1ccccc1)N(CCCCN(Cc1ccccc1)C(=O)Nc1ccccc1)Cc1ccccc1; > 100 µM

====

# GI50 per entry
- Tested on: EKVX NSCLC
- Assay: NCI tumour cell line growth inhibition, 48 h
Parameter measured: GI50

1) O=C(NN1C(=O)CSC12CCCC2)c1[nH]c2ccc(Br)cc2c1-c1ccccc1; > 100 µM
2) C[C@@H]1CC[C@H]2C(C(O)CCCCC(O)C3=C(C(F)(F)F)O[C@@H]4O[C@@]5(C)CC[C@H]6[C@H](C)CC[C@@H]3[C@@]46OO5)=C(C(F)(F)F)O[C@@H]3O[C@@]4(C)CC[C@@H]1[C@]32OO4 (stereo partly drawn); 31.9 µM
3) COc1ccc(OC)c(-c2c(C#N)c(N)nc(N3CCOCC3)c2C#N)c1; > 100 µM
4) O=C(COc1ccc(/C=C2\Oc3ccccc3C2=O)cc1)Nc1nc2c(s1)CCCC2; 10.7 µM
5) CCc1ccc(NC(=O)COC(=O)c2cc([N+](=O)[O-])ccc2Sc2nnnn2C)cc1; 29.5 µM
6) CC[C@H](CO)Nc1nc(NCc2ccccc2)n2ncc(C(C)C)c2n1; 2.41 µM
7) C/C=C(\C)C(=O)O[C@H]1C=CC(=O)O[C@@H]1CC[C@H](O)[C@H](C)O; 73.9 µM
8) Cc1ccc(CNc2c3ccccc3nc3cc(NC(=O)CCN4CCCC4)ccc23)cc1; 0.862 µM

====

Below, each of the compounds is paired with its reported TGI value.
- Test system: MOLT-4 leukemia
- Assay: NCI tumour cell line growth inhibition, 48 h
Parameter measured: TGI

1. COc1cc(/C=C2/C[C@H]3[C@@H]4CC=C5C[C@@H](OC(C)=O)CC[C@]5(C)[C@H]4CC[C@]3(C)NC2=O)cc(OC)c1OC; 91.4 µM
2. CC#CC(=O)SCCNC(=O)CC; > 8.86 µM
3. CC(C)(O)CC(=O)NCCn1ccc2ncnc(Nc3ccc(Oc4cccc(C(F)(F)F)c4)c(Cl)c3)c21; > 10 µM
4. CC1=C(CO)C(=O)O[C@@H]([C@@H](C)[C@H]2CC[C@H]3[C@@H]4C[C@@H](O)[C@@]5(O)CC=CC(=O)[C@]5(C)[C@H]4CC[C@]23C)C1; > 100 µM
5. COc1ccc(C2=NN(c3ccccc3)C[N+](c3ccc(OC)cc3)=N2)cc1; 90.7 µM
6. CCOC(=O)C(NC(=O)CC)(Nc1cc(C)on1)C(F)(F)F (centres undefined); > 100 µM
7. CN(C)c1ccc2c(c1)OC(N)=C(C#N)C2c1ccc2c(c1)CCO2 (centres undefined); 32.4 µM
8. CC[N+]1(C)CCC(O)(c2ccc(Cl)c(Cl)c2)C(C(=O)c2ccc(Cl)c(Cl)c2)C1 (centres undefined); > 10 µM
9. O=C(O)c1ccn(-c2cccc(-n3ccc(C(=O)O)n3)n2)n1; > 100 µM
